Assay: RAM signaling pathway blockade in yeast – S. cerevisiae, Pdr1DBD-CYC8 efflux-inhibited sensitized strain, primary screen (AID 1298);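 note: 0% = DMSO untreated cells without growth and 100% = 10 µM 1-NA-PP1 full growth; higher means more yeast growth rescued from 5-FOA killing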
Details: S. cerevisiae cbk1-as DSE1-URA3 strain, 5-FOA growth OD615, 2 d; at 50 µM; hits give high values
Active and inactive are the calls of the source.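 Rule for the calls: active = RAM network inhibition above 8.4% in each of two replicates, 3 SD over the compound average; inconclusive = above 8.4% inhibition in only one replicate; inactive = 8.4% inhibition or less in each replicate.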
MEASUREMENT NAME: RAM network inhibition

Lab note: measured RAM network inhibition of CCN1C(=O)c2ccccc2Sc2ccc(C(=O)NCCN3CCOCC3)cc21 was 2.02% (inactive)

The measured RAM network inhibition associated with CCN1CCN(C(c2cccs2)C(C)NC(=O)C(C)C)CC1 (stereo not drawn) reads 3.86% (inactive)

Short answer for Cc1csc2ncc(C(=O)Nc3ccc(C(F)(F)F)cc3)c(=O)n12 : RAM network inhibition was 3.03% (inactive)

So, CCSc1nc2c([nH]c3ccccc32)c(=O)n1C ? Its RAM network inhibition was 0.53% (inactive)

Record summary for Cc1cc(-n2c(SCCC#N)nnc2-c2cccnc2)ccc1Cl : reported RAM network inhibition = 5.99% (inactive)

Consider c1ccc(N(c2ccccc2)c2nc(N3CCOCC3)nc(N3CCOCC3)n2)cc1 . Its measured RAM network inhibition is 3.75% (inactive)

Input Cc1ccc(-c2nc(CS(=O)CC(=O)NCCCN3CC(C)CC(C)C3)c(C)o2)cc1 (stereo not drawn) . Output RAM network inhibition: 2.65% (inactive)

Item: CC(c1ccccc1)N1CNc2c(c(=O)n(C)c(=O)n2C)C1 (stereo not drawn) | RAM network inhibition: 0.77% (inactive)

Entry under test: Cc1ccc(-c2nnc3n2N=C(c2ccc(Br)cc2)CS3)cc1 . Its RAM network inhibition was 4.62% (inactive)

Looking up O=C(NC1CCCC1)C(c1ccc(Cl)cc1)N1CCOCC1 (stereo not drawn) , I found its RAM network inhibition recorded as 2.55% (inactive)

Entry CC1CCc2nn(CC(=O)Nc3c(F)cc(F)cc3Br)cc2C1 (stereo not drawn) ; RAM network inhibition = 1.57% (inactive)

Data point: CC12CN3CC(C)(CN(C1)C3c1ccc3ccccc3c1O)C2=O (stereo not drawn) ; RAM network inhibition = -0.68% (inactive)

RAM network inhibition for CCN1CCN(Cc2ccc(NC(=O)CC3Oc4ccc(C)cc4NC3=O)cc2)CC1 (stereo not drawn) is 2.33% (inactive)

Given item O=C(O)CC1(Cc2nc(-c3cccs3)no2)CCCC1 , the value recorded as its RAM network inhibition is -0.58% (inactive)

Measured RAM network inhibition, CCCc1cc(C(=O)NCc2ccc(OC)cc2)no1 : -0.68% (inactive)

The recorded RAM network inhibition for COc1cccc(-n2c(=O)[nH]cc(C(=O)Nc3ccc(NC(C)=O)cc3)c2=O)c1 is 4.32% (inactive)

Noted for CCC(C)NC(=O)Cn1cc2c(n1)CCC(C)C2 (stereo not drawn) : its RAM network inhibition reads 0.42% (inactive)

// RAM network inhibition lookup, molecule = COc1cccc(C(=O)Nc2nnc(-c3ccc(F)cc3)o2)c1 , result: 0.21% (inactive)

Lab note: O=C(C1CCN(S(=O)(=O)c2cccc3cccnc23)CC1)N1CC=C(c2ccccc2)CC1 gave RAM network inhibition of 2.07% (inactive)

For this molecule ( Cn1cccc1Cc1nnc(SCC(=O)NC2CCCCC2)n1-c1ccc(F)cc1 ), measured RAM network inhibition is 4.28% (inactive)

Noted for COC(=O)C1=C(C)N=c2s/c(=C3\C(=O)Nc4ccccc43)c(=O)n2C1c1ccccc1 (stereo not drawn) : its RAM network inhibition reads 3.17% (inactive)

Form: molecule = O=C(CC1Sc2ncnn2C1=O)Nc1ccc(Br)cc1 (stereo not drawn) ; RAM network inhibition = 5.71% (inactive)

Recorded result, COCCCNC(=O)CN1C(=O)CSc2ncccc21 , RAM network inhibition: 2.8% (inactive)

Values compiled from PubChem BioAssay.
